- PROTOCOL_SUMMARY: qHTS assay to identify small molecule antagonists of the androgen receptor (AR) signaling pathway using the MDA cell line in the presence of 0.5 nM R1881 - cell viability counter screen (AID 1259242); also: % is scaled to controls: 0 for no effect and ±100 for the full control effect; nearly all actives have a fitted effect of over 45% in size
- CONDITION_SUMMARY: MDA-kb2 viability, CellTiter-Fluor protease fluorescence, 16 h; series mostly up to 92.4 µM
Records with an inconclusive call do not appear. Active and inactive are the calls of the source. Calls follow the shape of the dose curve; as a rule, active = well fitted cell-killing curve with a large enough effect in the repeat runs; inconclusive = weak or mixed curves, or effect the other way; inactive = flat fitted curve, though single readings scatter.
Valid outcomes are listed here; reply with one: label 1 for active, label 0 for inactive

Use these answered entries as a reference point.
CC(C)(C)CC(C)(C)c1ccccc1O; label 0
CC(=O)Nc1ccc(O)cc1; label 0
Cc1occc1SSc1ccoc1C; label 0
CCCCOC(=O)C(C)CC (configuration not stated); label 0
CCCCC(CC)COC(=O)c1ccc(O)cc1 (configuration not stated); label 0

Please turn your attention to the following entry.
Q: Hello, I am checking results. What call was entered for O=c1cccc[nH]1 ?
Ans: label 0

====

- PROTOCOL_SUMMARY: qHTS assay to identify small molecule antagonists of the vitamin D receptor (VDR) signaling pathway - cell viability counter screen (AID 743225); also: nearly all actives have a fitted effect of over 50% in size
- CONDITION_SUMMARY: VDR-bla HEK293T viability, CellTiter-Glo luminescence, 16 h; series mostly up to 61 µM
Results filed as inconclusive are left out. The source made the active and inactive calls. Calls follow the shape of the dose curve; as a rule, active = well fitted cell-killing curve with a large enough effect in the repeat runs; inconclusive = weak or mixed curves, or effect the other way; inactive = no such curve, though single readings can be large or run the other way.
Respond only with the outcome that fits, drawn from active, inactive

Take a look at these entries with their results.
C[C@@H]1CC[C@H]2C(C)(C)[C@H]3C[C@@]12CC[C@@]3(C)O; inactive
CCCCCCCCCCCCCC[n+]1ccccc1; active
Cc1cccc(Br)c1; inactive
CC(=O)OC(OC(C)=O)c1ccc([N+](=O)[O-])o1; active
c1ccc(Nc2cccc3ccccc23)cc1; inactive

Q: GET /call?item= COc1cc(C(=O)NS(=O)(=O)c2ccccc2C)ccc1Cc1cn(C)c2ccc(NC(=O)OC3CCCC3)cc12 returns the recorded outcome of this test.
Ans: inactive

Q: What is the recorded call for this molecule in the test? CCCCCCCCCCCCCCCC
Ans: inactive

Q: Which result was noted for this molecule in the test: CCc1ccc(O)c(C(C)(C)C)c1
Ans: active

Q: Returns: the outcome recorded for CC(C)c1cccc(C(C)C)c1N1C(=O)c2ccc(O)cc2C1=O in this assay.
Ans: active

Q: What did the test return for CCCCCCCCCC(=O)N(C)C ?
Ans: inactive

====

- PROTOCOL_SUMMARY: qHTS assay to identify small molecule agonists of H2AX - cell viability counter screen (AID 1224847); also: nearly all actives have a fitted effect of over 30% in size; also: potency is read from the fitted curve at half-maximal effect
- CONDITION_SUMMARY: CHO-K1 viability, CellTiter-Glo luminescence, 3 h; series mostly up to 154 µM
- From the text: National Center for Advancing Translational Sciences [NCATS] NIH Chemical Genomics Center [NCGC] U.S. Environmental Protection Agency [EPA] National Institutes of Environmental Health Sciences [NIEHS] National Toxicology Program [NTP] U.S. Food and Drug Administration [FDA] HTRF phospho-H2AX (Ser139) assay (Cisbio Bioassays, US) enables the quantitative detection of the histone variant H2AX when phosphorylated on serine 139. […]
Records with an inconclusive call do not appear. Active and inactive are the calls of the source. Calls come from the whole dose curve.
MEASURED_PARAMETER: Potency

CCc1c(Br)c(Br)c(Br)c(Br)c1Br; inactive
CC1(C)C(=O)N(Br)C(=O)N1Br; inactive
CC=O; 14.9 µM (active)
CCCCCCOc1cc(C)c(O)c(C)c1C; 102 µM (active)
CCC(C)c1ccccc1 (stereo unspecified); inactive
Cc1cccc(C)n1; inactive
Cc1cncc(C)c1; inactive
CCCCOC(=O)C(C)CC (stereo unspecified); inactive

Q: Dear colleague, I am looking for the recorded Potency of the following compound: CCCCCCCCCCCCCCCC
Ans: inactive

Q: Potency for CC1CNCC(C)O1 (stereo unspecified) ?
Ans: inactive

Q: Can you look up the measured Potency of CC(C)(c1cc(Br)c(OCCO)c(Br)c1)c1cc(Br)c(OCCO)c(Br)c1 for me?
Ans: 87.8 µM (active)

Q: # input compound: CC1(C)COCN1 ; wanted: its Potency
Ans: inactive

Q: Bench note: what Potency did CC(C)c1ccccc1N show?
Ans: inactive

Q: Reported Potency for CCCC(CC)CCCCCCCN (stereo unspecified) : what is it?
Ans: 103 µM (active)

Q: Please report the recorded Potency for Cc1ccc(CCn2c3c(c4cc(Cl)ccc42)CN(C)CC3)cn1 .
Ans: inactive

Q: Field request: Potency | item: Clc1cc(Cl)c(-c2c(Cl)c(Cl)cc(Cl)c2Cl)cc1Cl
Ans: inactive

====

- PROTOCOL_SUMMARY: qHTS RealTime-Glo MT Cell Viability Assay in HEK293 cells - 16 hour (AID 1224872); also: nearly all actives have a fitted effect of over 50% in size
- CONDITION_SUMMARY: RealTime-Glo luminescence; series mostly up to 76.8 µM
Records with an inconclusive call do not appear. Calls of active or inactive are those of the source. The call rests on the fitted dose curve; in most records, active means well fitted cell-killing curve with a large enough effect in the repeat runs; inconclusive means weak or mixed curves, or effect the other way; inactive means flat fitted curve, though single readings scatter.
Allowed answers: yes (1) for active, no (0) for inactive

Below, 5 compounds whose answers are already recorded.
Nc1ncnc2c1ncn2[C@@H]1O[C@H](COP(=O)(O)O)[C@@H](O)[C@H]1O; no (0)
O=C(O)CCn1c2c(c3ccccc31)C[C@H](NS(=O)(=O)c1ccc(F)cc1)CC2; no (0)
CCCCCCCC/C=C\CCCCCCCC(=O)NCc1ccc(O)c(OC)c1; yes (1)
CCCCCCS; no (0)
CCCCCCOc1cc(C)c(O)c(C)c1C; yes (1)

Q: Hi, sorry to bother you, what did the test record for Cc1cn[nH]c1 ?
Ans: no (0)

Q: # fetch the recorded call for O=C1c2c(O)ccc([N+](=O)[O-])c2C(=O)c2c([N+](=O)[O-])ccc(O)c21 here
Ans: yes (1)

Q: // param item: Cc1ccc(O)cn1 ; yields the recorded call
Ans: no (0)

Q: Look up the recorded call for O=CC1CC1 in this test.
Ans: no (0)

Q: Each compound tested received a call. Report the one for NCCCCCCNCCCCCCN .
Ans: no (0)

Q: Hello, I am checking results. What call was entered for CCCN(CCc1cccs1)[C@H]1CCc2c(O)cccc2C1 ?
Ans: yes (1)

Q: Could you please tell me the result logged for C=C[C@](C)(O)CC[C@@H]1[C@@]2(C)CCCC(C)(C)[C@@H]2CC[C@@]1(C)O in this assay?
Ans: yes (1)

Q: Could you kindly confirm the outcome this assay logged for CN(C)CCCN1c2ccccc2Sc2ccc(C(F)(F)F)cc21 ?
Ans: yes (1)

Q: Recorded test outcome, item CN(C)CCOC(c1ccccc1)c1ccccc1 (tested in a mixture with another compound)
Ans: no (0)

Q: Test call for this compound, please: CCCCCCCC(OC)OC
Ans: no (0)

====

- PROTOCOL_SUMMARY: qHTS assay to identify aromatase inhibitors - cell viability counter screen (AID 743084);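 also: cells stimulated with testosterone during compound exposure; nearly all actives have a fitted effect of over 55% in size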
- CONDITION_SUMMARY: MCF-7 aro ERE viability, CellTiter-Fluor, 24 h; series mostly up to 70.3 µM
Results filed as inconclusive are left out. Calls of active or inactive are those of the source. The call rests on the fitted dose curve; in most records, active means well fitted cell-killing curve with a large enough effect in the repeat runs; inconclusive means weak or mixed curves, or effect the other way; inactive means no such curve, though single readings can be large or run the other way.
Pick from 1 = active, -1 = inactive when you respond.

CC(C)(C)C1=CC(=O)C=C(C(C)(C)C)C1=O; 1

Q: Please indicate how the test categorized CSc1ccc2c(c1)N(CCC1CCCCN1C)c1ccccc1S2 (stereo not given) .
Ans: 1

Q: Assay result, entry CN(C)CCCN1c2ccccc2CCc2ccccc21 — outcome?
Ans: -1

Q: Call for entry Cc1oc(-c2ccccc2)nc1CCOc1ccc(C[C@H](Nc2ccccc2C(=O)c2ccccc2)C(=O)O)cc1 :
Ans: 1

Q: Per the assay record, what outcome was assigned to C=CC(=O)OCCOCC(CC)(COCCOC(=O)C=C)COCCOC(=O)C=C ?
Ans: 1

====

- STUDY_SYSTEM: Progesterone receptor (Homo sapiens) (UniProt P06401)
- Sequence (P06401 whole entry, looked up): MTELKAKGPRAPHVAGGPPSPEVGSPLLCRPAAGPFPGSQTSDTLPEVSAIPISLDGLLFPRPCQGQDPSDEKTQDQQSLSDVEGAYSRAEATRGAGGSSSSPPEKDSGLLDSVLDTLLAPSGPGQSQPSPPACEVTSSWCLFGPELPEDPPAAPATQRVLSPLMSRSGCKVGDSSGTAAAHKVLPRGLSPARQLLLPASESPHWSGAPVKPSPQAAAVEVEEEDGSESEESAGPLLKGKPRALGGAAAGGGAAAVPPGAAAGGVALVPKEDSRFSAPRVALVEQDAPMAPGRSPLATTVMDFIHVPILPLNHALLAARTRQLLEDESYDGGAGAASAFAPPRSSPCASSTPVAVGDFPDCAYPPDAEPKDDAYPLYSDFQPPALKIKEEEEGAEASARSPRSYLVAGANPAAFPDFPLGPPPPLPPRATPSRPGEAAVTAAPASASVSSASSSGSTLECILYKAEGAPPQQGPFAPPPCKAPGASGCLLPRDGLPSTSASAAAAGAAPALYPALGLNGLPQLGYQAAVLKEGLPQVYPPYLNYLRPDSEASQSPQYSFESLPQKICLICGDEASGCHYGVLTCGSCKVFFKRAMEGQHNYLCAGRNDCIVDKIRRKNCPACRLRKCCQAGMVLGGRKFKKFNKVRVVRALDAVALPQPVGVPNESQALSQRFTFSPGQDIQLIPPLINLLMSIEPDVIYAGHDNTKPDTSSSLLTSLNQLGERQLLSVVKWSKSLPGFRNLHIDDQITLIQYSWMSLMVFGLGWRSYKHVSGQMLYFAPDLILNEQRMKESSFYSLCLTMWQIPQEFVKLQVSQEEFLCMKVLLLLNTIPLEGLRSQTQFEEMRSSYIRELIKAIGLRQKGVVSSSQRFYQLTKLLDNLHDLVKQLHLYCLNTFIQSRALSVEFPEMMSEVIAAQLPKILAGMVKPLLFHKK
- PROTOCOL_SUMMARY: qHTS assay to identify small molecule antagonists of the progesterone receptor (PR) signaling pathway (AID 1346795)
- CONDITION_SUMMARY: PR-UAS-bla HEK293T, beta-lactamase FRET ratio, 16 h; series mostly up to 92.4 µM
Results filed as inconclusive are left out. Calls of active or inactive are those of the source. Calls come from the whole dose curve; as a rule, active = well fitted inhibition curve with a large enough effect in the signal ratio in the repeat runs (not every such curve was filed as active); inconclusive = weak or mixed curves; inactive = flat fitted curve, though single readings scatter; the % refers to the signal ratio.
Choose the fitting class; nothing outside 1 (yes) for active, 0 (no) for inactive is accepted.

Q: Answer briefly: the call reported for CCCC(CC)CCCCCCCN (stereo not drawn) in this assay.
Ans: 0 (no)

Q: Hi team, can someone confirm the assay call for Cc1ccc(CCn2c3c(c4cc(Cl)ccc42)CN(C)CC3)cn1 ?
Ans: 0 (no)

Q: I'd appreciate the recorded outcome for CC(C)c1cccc(C(C)C)c1N1C(=O)c2ccc(O)cc2C1=O from this test.
Ans: 1 (yes)

Q: Hello, I am checking results. What call was entered for COCC(=O)O[C@]1(CCN(C)CCCc2nc3ccccc3[nH]2)CCc2cc(F)ccc2[C@@H]1C(C)C ?
Ans: 1 (yes)

Q: Hi, do you know how O=C1OC(=O)c2cccc3cccc1c23 came out in this test?
Ans: 0 (no)

Q: # lookup: test call for CCO[Si](C)(C)OCC
Ans: 0 (no)

Q: // param item: c1cc[nH]c1 ; yields the recorded call
Ans: 0 (no)

Q: Lab log entry: O=CC1CC1 — outcome as called in the assay?
Ans: 0 (no)

Q: Hi, sorry to bother you, what did the test record for C=CC(=O)OCCN(CC)CC ?
Ans: 0 (no)

Q: Query: recorded result category for Cc1cc(C)c(C=O)c(C)c1 in this test
Ans: 0 (no)

All figures here come from PubChem BioAssay (Tox21).
